Target: Ba/F3-Δ19del/T790M/C797S (Homo sapiens, UniProt P00533, T790M/C797S, cells depend on it, form not given)
Sequence (P00533 with tags, fused parts or gaps DEL746-750/T790M/C797S, form open): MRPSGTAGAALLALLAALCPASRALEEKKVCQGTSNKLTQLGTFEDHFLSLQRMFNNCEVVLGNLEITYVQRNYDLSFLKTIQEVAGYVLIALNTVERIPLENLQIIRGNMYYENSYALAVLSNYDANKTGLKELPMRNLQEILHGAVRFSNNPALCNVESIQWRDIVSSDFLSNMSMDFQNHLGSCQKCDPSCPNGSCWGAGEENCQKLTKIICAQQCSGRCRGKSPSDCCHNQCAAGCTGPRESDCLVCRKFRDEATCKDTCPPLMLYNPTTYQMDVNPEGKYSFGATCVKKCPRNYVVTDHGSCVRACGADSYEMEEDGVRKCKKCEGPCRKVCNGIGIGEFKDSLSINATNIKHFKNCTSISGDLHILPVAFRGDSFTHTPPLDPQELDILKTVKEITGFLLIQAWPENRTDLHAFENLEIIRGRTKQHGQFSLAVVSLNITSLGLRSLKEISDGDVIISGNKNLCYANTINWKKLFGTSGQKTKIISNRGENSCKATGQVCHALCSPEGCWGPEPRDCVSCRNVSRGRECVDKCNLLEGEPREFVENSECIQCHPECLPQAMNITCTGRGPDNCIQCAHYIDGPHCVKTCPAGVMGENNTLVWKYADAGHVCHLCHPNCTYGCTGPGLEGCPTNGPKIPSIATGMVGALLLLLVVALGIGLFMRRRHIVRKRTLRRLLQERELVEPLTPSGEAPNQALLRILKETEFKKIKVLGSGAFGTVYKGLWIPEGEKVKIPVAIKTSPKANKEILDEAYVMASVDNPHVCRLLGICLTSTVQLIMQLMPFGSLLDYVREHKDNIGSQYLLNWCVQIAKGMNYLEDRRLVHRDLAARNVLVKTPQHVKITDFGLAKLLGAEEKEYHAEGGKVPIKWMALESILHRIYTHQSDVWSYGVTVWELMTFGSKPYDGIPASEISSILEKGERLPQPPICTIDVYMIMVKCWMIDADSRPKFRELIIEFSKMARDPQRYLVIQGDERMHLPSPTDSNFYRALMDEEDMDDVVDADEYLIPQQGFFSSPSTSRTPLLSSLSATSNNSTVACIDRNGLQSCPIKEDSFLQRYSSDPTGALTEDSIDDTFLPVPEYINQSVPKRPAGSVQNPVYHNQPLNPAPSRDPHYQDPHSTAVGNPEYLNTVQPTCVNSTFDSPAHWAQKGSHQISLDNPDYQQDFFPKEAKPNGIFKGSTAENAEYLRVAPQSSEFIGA
Experiment: Cell proliferation experiment (CellTiter Glo, 72 hours)
Type: cell-based
Settings: read-out: Ba/F3/EGFR Δ19del/T790M/C797S IC50
reported_endpoint: GI50 (nM)
Numeric only. Scale: nM

Solved entries:
{"item_smiles": "COc1cc(N2CCC(N3CCN(C)CC3)CC2)c(C)cc1Nc1ncc(Br)c(Nc2ccc3ncccc3c2P(C)(C)=O)n1", "GI50 (nM)": 28.4}
{"item_smiles": "C#Cc1ccc2c(P(C)(C)=O)c(Nc3nc(Nc4cc(CC)c(N5CCC(N6CCN(C)CC6)CC5)cc4OC)ncc3Br)ccc2n1", "GI50 (nM)": 6}
{"item_smiles": "COc1cc(Nc2ncc(Br)c(Nc3ccc4nc(C5CC5)ccc4c3P(C)(C)=O)n2)cc(C)c1N1CCC(N2CCN(C)CC2)CC1", "GI50 (nM)": 12.1}
{"item_smiles": "C#Cc1ccc2c(P(C)(C)=O)c(Nc3nc(Nc4cc(OC)c(N5CCC(N6CCN(C)CC6)CC5)cc4C)ncc3Br)ccc2n1", "GI50 (nM)": 15.8}
{"item_smiles": "CCCc1ccc2c(P(C)(C)=O)c(Nc3nc(Nc4cc(C)c(N5CCC(N6CCN(C)CC6)CC5)cc4OC)ncc3Br)ccc2n1", "GI50 (nM)": 8.18}

Would you kindly look at the next entry?
[Q] Query GI50 for COc1cc(Nc2ncc(Br)c(Nc3ccc4nc(C5CC5)ccc4c3P(C)(C)=O)n2)c(C)cc1N1CCN(C2CCCC2)CC1
[A] 12

----------
EGFR WT (Homo sapiens, UniProt P00533): recorded IC50 for assorted compounds
Sequence (P00533 25-1210): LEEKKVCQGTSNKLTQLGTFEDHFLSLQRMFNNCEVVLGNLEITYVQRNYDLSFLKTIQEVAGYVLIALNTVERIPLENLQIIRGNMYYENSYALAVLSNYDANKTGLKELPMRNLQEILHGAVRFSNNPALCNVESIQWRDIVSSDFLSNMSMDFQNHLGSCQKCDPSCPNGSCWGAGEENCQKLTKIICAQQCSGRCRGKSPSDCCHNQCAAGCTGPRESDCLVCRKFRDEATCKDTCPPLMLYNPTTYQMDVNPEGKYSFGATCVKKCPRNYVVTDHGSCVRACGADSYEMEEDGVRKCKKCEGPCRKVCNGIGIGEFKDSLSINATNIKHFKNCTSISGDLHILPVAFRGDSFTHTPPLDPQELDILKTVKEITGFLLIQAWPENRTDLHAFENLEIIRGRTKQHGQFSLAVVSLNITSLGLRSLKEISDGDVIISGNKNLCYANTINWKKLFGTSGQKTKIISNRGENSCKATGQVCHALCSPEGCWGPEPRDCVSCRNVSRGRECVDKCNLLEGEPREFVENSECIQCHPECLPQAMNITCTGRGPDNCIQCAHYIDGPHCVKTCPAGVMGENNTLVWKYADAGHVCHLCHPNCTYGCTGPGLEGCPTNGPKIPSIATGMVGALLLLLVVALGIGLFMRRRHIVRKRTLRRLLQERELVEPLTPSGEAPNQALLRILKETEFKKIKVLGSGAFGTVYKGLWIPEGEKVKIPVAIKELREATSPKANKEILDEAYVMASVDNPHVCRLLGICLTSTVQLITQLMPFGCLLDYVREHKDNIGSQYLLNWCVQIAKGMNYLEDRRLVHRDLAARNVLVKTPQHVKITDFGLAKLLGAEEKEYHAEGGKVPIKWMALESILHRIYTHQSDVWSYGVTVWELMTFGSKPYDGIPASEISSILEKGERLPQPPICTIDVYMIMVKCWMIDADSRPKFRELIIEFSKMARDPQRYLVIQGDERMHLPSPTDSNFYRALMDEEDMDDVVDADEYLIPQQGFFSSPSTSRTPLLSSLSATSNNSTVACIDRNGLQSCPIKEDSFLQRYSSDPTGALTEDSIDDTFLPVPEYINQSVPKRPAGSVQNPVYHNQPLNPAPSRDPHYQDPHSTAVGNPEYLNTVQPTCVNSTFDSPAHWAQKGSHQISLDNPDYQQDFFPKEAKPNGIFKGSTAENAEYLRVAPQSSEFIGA
Numeric only. Scale: nM

{"compound": "CCc1cc(Nc2ncc(Br)c(Nc3ccc4nc(C#N)ccc4c3P(C)(C)=O)n2)c(OC)cc1N1CCC(N2CCN(C)CC2)CC1", "units_label": "nM", "IC50": 4.6}
{"compound": "COc1cc(Nc2ncc(Br)c(Nc3ccc4nc(C5CC5)ccc4c3P(C)(C)=O)n2)c(C#N)cc1N1CCC(N2CCN(C)CC2)CC1", "units_label": "nM", "IC50": 2310}

[Q] Query IC50 for COc1cc(N2CCN(C3CCCC3)CC2)c(C)cc1Nc1ncc(Br)c(Nc2ccc3nc(C4CC4)ccc3c2P(C)(C)=O)n1 [Compound J-032]
[A] 121

----------
# GI50 per record follows
Biological target: Ba/F3-Δ19del/T790M/C797S (Homo sapiens, UniProt P00533, T790M/C797S, cells depend on it, form not given)
Experiment: Cell proliferation experiment (CellTiter Glo, 72 hours)
Type: cell-based
Settings: read-out: Ba/F3/EGFR Δ19del/T790M/C797S IC50
Numeric only. Scale: nM

Solved entries:
{"item_smiles": "COc1cc(Nc2ncc(Br)c(Nc3ccc4nc(C5CC5)ccc4c3P(C)(C)=O)n2)c(C2CC2)cc1N1CCC(N2CCN(C)CC2)CC1", "reported_endpoint": "GI50", "units_label": "nM", "result": 26.7}
{"item_smiles": "COc1cc(N2CCC(N3CCN(C)CC3)CC2)c(-c2cnn(C(F)F)c2)cc1Nc1ncc(Br)c(Nc2ccc3nc(C4CC4)ccc3c2P(C)(C)=O)n1", "reported_endpoint": "GI50", "units_label": "nM", "result": 2.4}
{"item_smiles": "COc1cc(N2CCN(c3nccs3)CC2)c(-c2cnn(C)c2)cc1Nc1ncc(Br)c(Nc2ccc3nc(C4CC4)ccc3c2P(C)(C)=O)n1", "reported_endpoint": "GI50", "units_label": "nM", "result": 7.6}
{"item_smiles": "COc1cc(Nc2ncc(Br)c(Nc3ccc4nc(C5CC5)ccc4c3P(C)(C)=O)n2)c(C)cc1N1CCC(N2CCN(C)CC2)CC1", "reported_endpoint": "GI50", "units_label": "nM", "result": 6.4}
{"item_smiles": "CCc1cc(Nc2ncc(Br)c(Nc3ccc4nc(C5CC5)ccc4c3P(C)(C)=O)n2)c(C)cc1N1CCC(N2CCN(C)CC2)CC1", "reported_endpoint": "GI50", "units_label": "nM", "result": 1.4}
{"item_smiles": "COc1cc(N2CCN(c3cnc(N(C)C)cn3)CC2)c(-c2cnn(C)c2)cc1Nc1ncc(Br)c(Nc2ccc3nc(C4CC4)ccc3c2P(C)(C)=O)n1", "reported_endpoint": "GI50", "units_label": "nM", "result": 13.5}

[Q] Query GI50 for CCc1cc(Nc2ncc(Br)c(Nc3ccc4nc(C5CC5)ccc4c3P(C)(C)=O)n2)c(OC)cc1N1CCC(N2CCN(C)CC2)CC1
[A] 1.9

[Q] Query GI50 for COc1cc(N2CCC(N3CCN(C)CC3)CC2)c(C)cc1Nc1ncc(Br)c(Nc2ccc3nc(C(C)C)ccc3c2P(C)(C)=O)n1
[A] 5.8

[Q] Query GI50 for COc1cncc(N2CCN(c3cc(OC)c(Nc4ncc(Br)c(Nc5ccc6nc(C7CC7)ccc6c5P(C)(C)=O)n4)cc3-c3cnn(C)c3)CC2)n1
[A] 8.5

[Q] Query GI50 for COc1cc(N2CCC(N3CCN(C)CC3)CC2)c(OC)cc1Nc1ncc(Br)c(Nc2ccc3nc(C4CC4)ccc3c2P(C)(C)=O)n1
[A] 2.2

[Q] Query GI50 for COc1cc(Nc2ncc(Br)c(Nc3ccc4nc(C5CC5)ccc4c3P(C)(C)=O)n2)c(C)cc1N1CCOCC1
[A] 26.5

[Q] Query GI50 for COc1cc(N2CCC(N3CCN(C)CC3)CC2)c(-c2cnn(C)c2)cc1Nc1ncc(F)c(Nc2ccc3nc(C4CC4)ccc3c2P(C)(C)=O)n1
[A] 13
